The reported numbers originate from patent US5338858A.

Would you mind telling me the reported Activity (% of Myristate) of each entry?
tgt: yeast N-myristoyltransferase (Saccharomyces cerevisiae, UniProt P14743)
Sequence (P14743 whole entry): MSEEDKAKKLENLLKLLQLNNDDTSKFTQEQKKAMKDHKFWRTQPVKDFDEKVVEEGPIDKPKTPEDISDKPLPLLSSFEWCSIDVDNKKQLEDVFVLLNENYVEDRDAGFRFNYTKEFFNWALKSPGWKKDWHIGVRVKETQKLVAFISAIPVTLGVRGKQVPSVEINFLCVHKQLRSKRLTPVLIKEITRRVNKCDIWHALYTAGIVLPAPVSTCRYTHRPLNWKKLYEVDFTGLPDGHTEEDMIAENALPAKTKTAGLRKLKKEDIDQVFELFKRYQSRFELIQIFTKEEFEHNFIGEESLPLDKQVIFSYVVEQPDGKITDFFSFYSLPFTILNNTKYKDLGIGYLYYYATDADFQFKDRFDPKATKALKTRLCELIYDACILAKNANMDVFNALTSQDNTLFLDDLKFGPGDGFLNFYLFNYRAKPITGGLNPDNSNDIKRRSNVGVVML
method_description: in vitro yeast N-myristoyltransferase (NMT) assay, substrate activity of fatty acyl CoA derivatives
Format: biochemical
condition_notes: peptide GSAASARR-NH2, 30° C., 10 minutes; normalized to myristoyl peptide of parallel assay
Description: A. Representative compounds prepared in the foregoing illustrative specific examples were analyzed in a conventional in vitro yeast N-myristoyltransferase (NMT) assay as published by Heuckeroth et al., Proc. Nat'l Acad. Sci. USA 85, 8795-8799 (1988). In this assay, the test compounds were first converted to their respective fatty acyl CoA derivatives and then tested as substrates for the yeast NMT. […] 2. […] Radioactivity was assessed with an on line radiomatic detector corrected for quenching. […]

Request: Could you share which Activity (% of Myristate) value was measured for "O=C(O)CCCCCCCCCCCn1cncn1" ?
Response: 23 % of Myristate

Request: And then "[N-]=[N+]=NCCCCCCCCCCC(=O)O" , what is it?
Response: 100 % of Myristate

Request: And then "[N-]=[N+]=NCCCCCCCCC(=O)O" , what is it?
Response: 55 % of Myristate

Request: And then "[N-]=[N+]=NCCCCCCCCSCCC(=O)O" , what is it?
Response: 373 % of Myristate

Request: And then "[N-]=[N+]=NCCCCCCCCCCCC(=O)O" , what is it?
Response: 142 % of Myristate

Request: And then "[N-]=[N+]=NCCCCCCCCCOCC(=O)O" , what is it?
Response: 11 % of Myristate

Request: And then "[N-]=[N+]=NCCCCCCCCCSCC(=O)O" , what is it?
Response: 17 % of Myristate

Request: And then "[N-]=[N+]=NCCCOCCCCCCCC(=O)O" , what is it?
Response: 421 % of Myristate

Request: And then "O=C(O)CCCCCCCCCCCn1nccn1" , what is it?
Response: 99 % of Myristate

Request: And then "[N-]=[N+]=NCCCCCCOCCCCC(=O)O" , what is it?
Response: 622 % of Myristate

Request: And then "[N-]=[N+]=NCCCCCCSCCCCC(=O)O" , what is it?
Response: 103 % of Myristate

Request: And then "[N-]=[N+]=NCCOCCCCCCCCC(=O)O" , what is it?
Response: 280 % of Myristate
